# TARGET OR TEST SYSTEM: T1, HLA-B*44:02 (human)
# T1 construct: Peptide-receptive MHC class I monomer made by UV cleavage of a UV-sensitive ligand
# ASSAY PROCEDURE: UV ligand exchange ELISA; exchange yield grade
READOUT TYPE: peptide exchange yield

[[record]]
binder = "VDASIFKAW"
result = "20 to 50%"

[[record]]
binder = "REYEHYWTEL"
result = "50 to 75%"

[[record]]
binder = "AESEDLAVHL"
result = "20 to 50%"

[[record]]
binder = "SEYSHLTRV"
result = "20 to 50%"

[[record]]
binder = "AEYKGRVTL"
result = "> 75%"

[[record]]
binder = "QEVDASIFKAW"
result = "50 to 75%"

[[record]]
binder = "TENPLTKLL"
result = "> 75%"

[[record]]
binder = "GENEDNRIGL"
result = "20 to 50%"


Source of measurements: patent US20180291083A1
